Values compiled from the supplement of paper PMC4466140.

biological target: ScBzz1-D1; experiment: SPOT peptide array binding signal intensity (averaged, normalized) (arbitrary units (background-subtracted, floor 0; scale differs between SH3 domains)); higher = stronger binding of the SH3 domain to the peptide
# SPOT peptide array binding signal intensity per entry

Look over these answered cases.
GPPPPLPPPLFPSSS = 1.5
WTQRRGPLVVYAEDN = 28
GSKSGPPPRPKKPST = 48.5

Exam item: Look at this binder and give its reported SPOT peptide array binding signal intensity. FSRRQSMDIPSKNRN
Marked response: 48
